# Target Or System: recombinant PI3 kinase γ (Homo sapiens (Human), UniProt P48736)
# Sequence (P48736 whole entry): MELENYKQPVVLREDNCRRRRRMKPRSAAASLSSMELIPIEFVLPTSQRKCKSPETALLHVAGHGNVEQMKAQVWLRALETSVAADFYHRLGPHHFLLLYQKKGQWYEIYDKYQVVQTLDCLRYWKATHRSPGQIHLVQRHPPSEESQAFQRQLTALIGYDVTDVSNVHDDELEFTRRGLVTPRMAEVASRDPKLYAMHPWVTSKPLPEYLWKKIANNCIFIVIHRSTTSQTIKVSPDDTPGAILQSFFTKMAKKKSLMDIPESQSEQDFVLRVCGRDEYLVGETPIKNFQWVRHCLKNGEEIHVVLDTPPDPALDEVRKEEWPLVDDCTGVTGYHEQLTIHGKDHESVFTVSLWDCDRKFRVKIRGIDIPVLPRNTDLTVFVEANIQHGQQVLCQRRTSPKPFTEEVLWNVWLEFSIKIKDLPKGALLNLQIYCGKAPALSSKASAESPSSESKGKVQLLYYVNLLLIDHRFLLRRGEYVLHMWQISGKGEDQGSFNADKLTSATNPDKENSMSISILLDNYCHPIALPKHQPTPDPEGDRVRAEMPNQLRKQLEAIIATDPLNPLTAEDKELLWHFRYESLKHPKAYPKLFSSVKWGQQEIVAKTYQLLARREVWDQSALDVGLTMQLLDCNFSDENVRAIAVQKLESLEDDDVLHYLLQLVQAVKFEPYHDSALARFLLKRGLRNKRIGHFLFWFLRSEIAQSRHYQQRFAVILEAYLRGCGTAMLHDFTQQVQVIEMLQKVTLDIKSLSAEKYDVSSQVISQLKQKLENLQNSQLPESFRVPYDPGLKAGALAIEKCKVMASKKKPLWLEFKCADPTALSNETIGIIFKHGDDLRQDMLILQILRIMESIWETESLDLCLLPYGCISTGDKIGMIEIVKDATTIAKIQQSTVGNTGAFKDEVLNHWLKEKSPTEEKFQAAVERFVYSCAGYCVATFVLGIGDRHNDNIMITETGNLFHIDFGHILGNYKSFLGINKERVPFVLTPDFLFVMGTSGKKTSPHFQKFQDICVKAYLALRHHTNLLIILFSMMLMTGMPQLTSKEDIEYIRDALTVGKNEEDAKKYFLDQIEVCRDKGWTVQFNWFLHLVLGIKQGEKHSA
# Procedure Text: Enzyme Inhibition Assay (HTRF PI3K enzyme assay, TR-FRET)
# Format: biochemical
# Cond: activity range; read-out: PI3 Kinase Inhibition IC50 values at stated Isozyme γ
pIC50: −log10 of the molar value.
pIC50 reference

Below, 10 molecules whose answers are already recorded.
{"columns": ["Molecule", "Target Or System", "Observed Result"],
 "data": [
  ["C#Cc1cccc2nc(Cn3nc(-c4ccc(O)cc4)c4c(N)ncnc43)n(Cc3cc(OC)ccc3F)c(=O)c12 [Example 42]", "recombinant PI3 kinase γ (Homo sapiens (Human), UniProt P48736)", "6.00 to 7.30"],
  ["COCCNC(=O)CCCC#Cc1cccc2nc(Cn3nc(-c4cccc(O)c4)c4c(N)ncnc43)n(Cc3ccccc3Cl)c(=O)c12 [Example 54]", "recombinant PI3 kinase γ (Homo sapiens (Human), UniProt P48736)", "> 7.30"],
  ["C#Cc1cccc2nc(Cn3nc(-c4ccc(O)cc4)c4c(N)ncnc43)n(Cc3cccc(Cl)c3F)c(=O)c12 [Example 33]", "recombinant PI3 kinase γ (Homo sapiens (Human), UniProt P48736)", "6.00 to 7.30"],
  ["C#Cc1cccc2nc(Cn3nc(-c4ccc(O)cc4)c4c(N)ncnc43)n(Cc3ccc(Cl)c(Cl)c3)c(=O)c12 [Example 43]", "recombinant PI3 kinase γ (Homo sapiens (Human), UniProt P48736)", "6.00 to 7.30"],
  ["C#Cc1cccc2nc(Cn3nc(-c4ccc(O)cc4)c4c(N)ncnc43)n(Cc3c(F)cccc3F)c(=O)c12 [Example 34]", "recombinant PI3 kinase γ (Homo sapiens (Human), UniProt P48736)", "6.00 to 7.30"],
  ["C#Cc1cccc2nc(Cn3nc(-c4ccc(F)c(O)c4)c4c(N)ncnc43)n(Cc3ccccc3Cl)c(=O)c12 [Example 51]", "recombinant PI3 kinase γ (Homo sapiens (Human), UniProt P48736)", "6.00 to 7.30"],
  ["C#Cc1cccc2nc(Cn3nc(-c4ccc(O)cc4)c4c(N)ncnc43)n(Cc3cccc(Cl)c3)c(=O)c12 [Example 11]", "recombinant PI3 kinase γ (Homo sapiens (Human), UniProt P48736)", "6.00 to 7.30"],
  ["Cn1cc(Cn2c(Cn3nc(-c4cccc(O)c4)c4c(N)ncnc43)nc3cccc(C#CCCCC(=O)N4CCOCC4)c3c2=O)cn1 [Example 66]", "recombinant PI3 kinase γ (Homo sapiens (Human), UniProt P48736)", "> 7.30"],
  ["Nc1ncnc2c1c(-c1ccc(O)cc1)nn2Cc1nc2cccc(C#CCC3CCCC3)c2c(=O)n1Cc1ccccc1Cl [Example 39]", "recombinant PI3 kinase γ (Homo sapiens (Human), UniProt P48736)", "6.00 to 7.30"],
  ["C#Cc1cccc2nc(Cn3nc(-c4ccc(O)cc4)c4c(N)ncnc43)n(Cc3ccc(Cl)cc3F)c(=O)c12 [Example 35]", "recombinant PI3 kinase γ (Homo sapiens (Human), UniProt P48736)", "6.00 to 7.30"]
]}

Task: Using the record for C#Cc1cccc2nc(Cn3nc(-c4ccc(O)cc4)c4c(N)ncnc43)n(Cc3cccc(C(F)(F)F)c3)c(=O)c12 [Example 16] , report its pIC50.
Result: 6.00 to 7.30

Task: # query: pIC50 of entry Nc1ncnc2c1c(-c1ccc(O)cc1)nn2Cc1nc2cccc(C#CCCCC(=O)NC3CCOCC3)c2c(=O)n1Cc1ccccc1Cl [Example 75]
Result: > 7.30

Task: I am curious: what pIC50 value has been reported for NC(=O)NCC#Cc1cccc2nc(Cn3nc(-c4ccc(O)cc4)c4c(N)ncnc43)n(Cc3ccccc3Cl)c(=O)c12 [Example 49] ?
Result: 6.00 to 7.30

Task: Item COCCN1CCN(C(=O)CCCC#Cc2cccc3nc(Cn4nc(-c5ccc(O)cc5)c5c(N)ncnc54)n(Cc4ccccc4Cl)c(=O)c23)CC1 [Example 77] has what recorded pIC50?
Result: > 7.30
